# STUDY TARGET: human δOR (Homo sapiens)
# Construct: host or cells: CHO cells (CHO-hδOR; CHO-hδOR-p22F for the cAMP assay)
# Sequence (P41143 whole entry): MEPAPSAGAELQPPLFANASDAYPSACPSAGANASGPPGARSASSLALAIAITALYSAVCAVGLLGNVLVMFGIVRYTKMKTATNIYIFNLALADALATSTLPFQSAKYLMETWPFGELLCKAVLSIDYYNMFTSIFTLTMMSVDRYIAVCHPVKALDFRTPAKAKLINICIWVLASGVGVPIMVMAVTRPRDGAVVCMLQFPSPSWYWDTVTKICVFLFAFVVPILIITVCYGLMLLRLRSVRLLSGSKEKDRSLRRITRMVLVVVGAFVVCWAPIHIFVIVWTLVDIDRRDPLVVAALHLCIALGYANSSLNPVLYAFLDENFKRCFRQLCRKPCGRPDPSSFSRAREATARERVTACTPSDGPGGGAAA
# METHOD NOTES: Forskolin-induced cAMP accumulation assay, CHO-hδOR-p22F cells
# Format: cell-based
pEC50: −log10 of the molar value.
Short version: pEC50 at least 8 is condition met, less is condition not met.

For orientation, consider the following solved cases.
{"COMPOUND": "CO[C@@]12CCC(=O)[C@]3(C)Oc4c(O)ccc5c4[C@@]31CCN(CCc1ccccc1)[C@@H]2C5 [Compound 4a]", "ASSIGNED CATEGORY": "condition met"}
{"COMPOUND": "CO[C@@]12CCC(=O)[C@@H]3Oc4c(O)ccc5c4[C@@]31CCN(CCc1ccccc1)[C@@H]2C5 [Compound 3a]", "ASSIGNED CATEGORY": "condition met"}

Reported pEC50 reaches at least 8 for CO[C@@]12CCC(=O)[C@@H]3Oc4c(O)ccc5c4[C@@]31CCN(C)[C@@H]2C5 [14-OMO (3), 14-O-methyloxymorphone, reference compound] ?
condition met

Reported pEC50 reaches at least 8 for Oc1ccc2c3c1O[C@H]1[C@@H](O)C=C[C@H]4[C@@H](C2)N(CCc2ccccc2)CC[C@@]341 [Compound 1a] ?
condition not met

Reported pEC50 reaches at least 8 for CO[C@@]12CCC(=O)[C@]3(C)Oc4c(O)ccc5c4[C@@]31CCN(C)[C@@H]2C5 [14-MM (4), 14-methoxymetopon, reference compound] ?
condition met

---

# STUDY TARGET: human δOR (Homo sapiens)
# Construct: CHO-hδOR-p22F for the cAMP assay)
# METHOD NOTES: Competition binding assay, CHO-hδOR cell membranes ([3H]Diprenorphine)
RECORDED ENDPOINT: Ki (nM)
Respond numerically; units are nM and should not be typed.

Example results:
{"COMPOUND": "CO[C@@]12CCC(=O)[C@@H]3Oc4c(O)ccc5c4[C@@]31CCN(CCc1ccccc1)[C@@H]2C5", "STUDY TARGET": "human δOR (Homo sapiens)", "UNIT ABBREVIATION": "nM", "Ki": 1.81}
{"COMPOUND": "Oc1ccc2c3c1O[C@H]1[C@@H](O)C=C[C@H]4[C@@H](C2)N(CCc2ccccc2)CC[C@@]341", "STUDY TARGET": "human δOR (Homo sapiens)", "UNIT ABBREVIATION": "nM", "Ki": 24.5}
{"COMPOUND": "CO[C@@]12CCC(=O)[C@@H]3Oc4c(O)ccc5c4[C@@]31CCN(C)[C@@H]2C5 [14-OMO (3), 14-O-methyloxymorphone, reference compound]", "STUDY TARGET": "human δOR (Homo sapiens)", "UNIT ABBREVIATION": "nM", "Ki": 9.08}
{"COMPOUND": "CO[C@@]12CCC(=O)[C@]3(C)Oc4c(O)ccc5c4[C@@]31CCN(C)[C@@H]2C5 [14-MM (4), 14-methoxymetopon, reference compound]", "STUDY TARGET": "human δOR (Homo sapiens)", "UNIT ABBREVIATION": "nM", "Ki": 18.6}

Consider the record given below.
Read off the recorded Ki for "CO[C@@]12CCC(=O)[C@]3(C)Oc4c(O)ccc5c4[C@@]31CCN(CCc1ccccc1)[C@@H]2C5"
1.45
